target of assay: Cannabinoid receptor 1 (Homo sapiens, UniProt P21554)
Sequence (P21554 whole entry): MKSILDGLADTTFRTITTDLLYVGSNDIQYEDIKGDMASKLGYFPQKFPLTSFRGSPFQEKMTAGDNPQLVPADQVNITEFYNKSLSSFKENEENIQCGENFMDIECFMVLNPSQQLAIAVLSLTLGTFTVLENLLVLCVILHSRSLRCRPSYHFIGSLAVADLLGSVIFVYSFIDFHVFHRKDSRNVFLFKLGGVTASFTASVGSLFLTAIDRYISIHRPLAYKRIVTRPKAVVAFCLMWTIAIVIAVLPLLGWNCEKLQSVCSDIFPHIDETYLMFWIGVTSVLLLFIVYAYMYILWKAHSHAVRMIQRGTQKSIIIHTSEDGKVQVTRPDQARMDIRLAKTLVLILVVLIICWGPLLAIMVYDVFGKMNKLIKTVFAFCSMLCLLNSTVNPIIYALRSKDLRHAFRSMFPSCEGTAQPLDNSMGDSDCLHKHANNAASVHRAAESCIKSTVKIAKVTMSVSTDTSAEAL
test details: Displacement of [3H]CP55940 from human CB1 receptor expressed in CHO cell membrane incubated for 2 hrs
result type: pIC50
Lab note: report pIC50 as minus log10 of the concentration in molar units, number only.

1) Cc1c(Br)cc(C(=O)NC2CCCCCC2)c(=O)n1Cc1ccc(F)cc1 = 9.10
2) Cc1c(Br)cc(C(=O)NC2CCCCCC2)c(=O)n1CCCCCn1cc(CCCC(=O)NCC(c2ccccc2)c2c(-c3ccccc3)[nH]c3ccccc23)nn1 (configuration not stated) = 7.80
3) Cc1c(Br)cc(C(=O)NC2CCCCCC2)c(=O)n1CCCn1cc(CCC(=O)NCC(c2ccccc2)c2c(-c3ccccc3)[nH]c3ccccc23)nn1 (configuration not stated) = 7.50

Problem: Item: Cc1c(Br)cc(C(=O)NC2CCCCCC2)c(=O)n1CCCn1cc(CCCCC(=O)NCC(c2ccccc2)c2c(-c3ccccc3)[nH]c3ccccc23)nn1 (configuration not stated) Test system: Cannabinoid receptor 1 (Homo sapiens, UniProt P21554) Read-out: pIC50 Value: ?
Solution: 9.20

###

target of assay: Cannabinoid receptor 1 (Homo sapiens)
test details: Agonist activity at human CB1 receptor expressed in CHO cells assessed as inhibition of forskolin-induced cAMP production at 100 nM incubated for 90 mins in presence of CP55940 ligand by HitHunter assay relative to control
Assay type: functional, cell-based
assay context: filed as agonist
Each entry below carries its recorded Emax.
Output spec: scalar in %, unitless text.

Reference set (3 entries):
1. Cc1c(Br)cc(C(=O)NC2CCCCCC2)c(=O)n1CCCn1cc(CCC(=O)NCC(c2ccccc2)c2c(-c3ccccc3)[nH]c3ccccc23)nn1 (centres undefined) = 61
2. Cc1c(Br)cc(C(=O)NC2CCCCCC2)c(=O)n1CCCCCn1cc(CCCC(=O)NCC(c2ccccc2)c2c(-c3ccccc3)[nH]c3ccccc23)nn1 (centres undefined) = 122
3. Cc1c(Br)cc(C(=O)NC2CCCCCC2)c(=O)n1CCCn1cc(CCCC(=O)NCC(c2ccccc2)c2c(-c3ccccc3)[nH]c3ccccc23)nn1 (centres undefined) = 79

# context switch: different molecule, same Emax
Problem: // query Emax value for entry Cc1c(Br)cc(C(=O)NC2CCCCCC2)c(=O)n1CCCCCn1cc(CCC(=O)NCC(c2ccccc2)c2c(-c3ccccc3)[nH]c3ccccc23)nn1 (centres undefined)
Solution: 58

###

target of assay: Cannabinoid receptor 2 (Homo sapiens)
Sequence (P34972 whole entry): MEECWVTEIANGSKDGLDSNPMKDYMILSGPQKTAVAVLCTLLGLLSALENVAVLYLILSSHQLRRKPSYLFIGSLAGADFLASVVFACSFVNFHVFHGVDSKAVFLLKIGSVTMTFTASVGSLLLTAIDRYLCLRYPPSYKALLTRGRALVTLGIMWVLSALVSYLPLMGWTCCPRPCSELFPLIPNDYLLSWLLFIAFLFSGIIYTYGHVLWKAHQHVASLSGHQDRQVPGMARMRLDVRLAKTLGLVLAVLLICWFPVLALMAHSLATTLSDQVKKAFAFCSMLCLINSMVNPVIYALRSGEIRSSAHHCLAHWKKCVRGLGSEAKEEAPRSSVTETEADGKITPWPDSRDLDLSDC
test details: Displacement of [3H]CP55940 from human CB2 receptor expressed in CHO cell membrane incubated for 2 hrs
Format: cell membranes
assay context: read-out: pIC50 (converted)
result type: IC50 (nM)
Output spec: scalar in nM, unitless text.

1. Cc1c(Br)cc(C(=O)NC2CCCCCC2)c(=O)n1Cc1ccc(F)cc1 = 6.31

Problem: // query IC50 value for entry Cc1c(Br)cc(C(=O)NC2CCCCCC2)c(=O)n1CCCCCn1cc(CCCCC(=O)NCC(c2ccccc2)c2c(-c3ccccc3)[nH]c3ccccc23)nn1 (centres undefined)
Solution: 1000

###

target of assay: UniProt:P21554
test details: Agonist activity at human CB1 receptor expressed in CHO cells assessed as inhibition of forskolin-induced cAMP production incubated for 90 mins in presence of GAT211 ligand by HitHunter assay
Type: functional, cell-based
Each entry below carries its recorded log10(EC50).
Field: value | Transform: log10 | Quantity: EC50 | Unit: µM

Problem: // query log10(EC50) value for entry Cc1c(Br)cc(C(=O)NC2CCCCCC2)c(=O)n1CCCn1cc(CCCC(=O)NCC(c2ccccc2)c2c(-c3ccccc3)[nH]c3ccccc23)nn1 (stereo not given)
Solution: -1.80

Problem: // query log10(EC50) value for entry Cc1c(Br)cc(C(=O)NC2CCCCCC2)c(=O)n1CCCCCn1cc(CCCC(=O)NCC(c2ccccc2)c2c(-c3ccccc3)[nH]c3ccccc23)nn1 (stereo not given)
Solution: -2.30

Problem: // query log10(EC50) value for entry Cc1c(Br)cc(C(=O)NC2CCCCCC2)c(=O)n1CCCCCn1cc(CCCCC(=O)NCC(c2ccccc2)c2c(-c3ccccc3)[nH]c3ccccc23)nn1 (stereo not given)
Solution: -0.90

Problem: // query log10(EC50) value for entry Cc1c(Br)cc(C(=O)NC2CCCCCC2)c(=O)n1CCCCCn1cc(CCC(=O)NCC(c2ccccc2)c2c(-c3ccccc3)[nH]c3ccccc23)nn1 (stereo not given)
Solution: -1.20

Problem: // query log10(EC50) value for entry Cc1c(Br)cc(C(=O)NC2CCCCCC2)c(=O)n1CCCn1cc(CCC(=O)NCC(c2ccccc2)c2c(-c3ccccc3)[nH]c3ccccc23)nn1 (stereo not given)
Solution: -2.70

###

target of assay: UniProt:P21554
test details: Agonist activity at human CB1 receptor expressed in CHO cells assessed as inhibition of forskolin-induced cAMP production at 100 nM incubated for 90 mins in presence of FM6b ligand by HitHunter assay relative to control
Format: functional, cell-based
assay context: filed as agonist
result type: Emax (%)
Output spec: scalar in %, unitless text.

Reference set (2 entries):
1) Cc1c(Br)cc(C(=O)NC2CCCCCC2)c(=O)n1CCCCCn1cc(CCCCC(=O)NCC(c2ccccc2)c2c(-c3ccccc3)[nH]c3ccccc23)nn1 (stereo not drawn) = 83
2) Cc1c(Br)cc(C(=O)NC2CCCCCC2)c(=O)n1CCCn1cc(CCCCC(=O)NCC(c2ccccc2)c2c(-c3ccccc3)[nH]c3ccccc23)nn1 (stereo not drawn) = 67

# context switch: different compound, same Emax
Problem: // query Emax value for entry Cc1c(Br)cc(C(=O)NC2CCCCCC2)c(=O)n1CCCCCn1cc(CCC(=O)NCC(c2ccccc2)c2c(-c3ccccc3)[nH]c3ccccc23)nn1 (stereo not drawn)
Solution: 120

###

Each entry below carries its recorded Emax.
target of assay: UniProt:P21554
test details: Agonist activity at human CB1 receptor expressed in CHO cells assessed as inhibition of forskolin-induced cAMP production at 100 nM incubated for 90 mins in presence of FM6b ligand by HitHunter assay relative to control
Assay type: functional, cell-based
assay context: filed as agonist
Output spec: scalar in %, unitless text.

Reference set (2 entries):
1. Cc1c(Br)cc(C(=O)NC2CCCCCC2)c(=O)n1CCCn1cc(CCC(=O)NCC(c2ccccc2)c2c(-c3ccccc3)[nH]c3ccccc23)nn1 (stereo not drawn) = 150
2. Cc1c(Br)cc(C(=O)NC2CCCCCC2)c(=O)n1CCCCCn1cc(CCCC(=O)NCC(c2ccccc2)c2c(-c3ccccc3)[nH]c3ccccc23)nn1 (stereo not drawn) = 130

# context switch: different compound, same Emax
Problem: // query Emax value for entry Cc1c(Br)cc(C(=O)NC2CCCCCC2)c(=O)n1CCCn1cc(CCCC(=O)NCC(c2ccccc2)c2c(-c3ccccc3)[nH]c3ccccc23)nn1 (stereo not drawn)
Solution: 120

###

target of assay: Cannabinoid receptor 1 (Homo sapiens)
test details: Agonist activity at human CB1 receptor expressed in CHO cells assessed as inhibition of forskolin-induced cAMP production incubated for 90 mins in presence of CP55940 ligand by HitHunter assay
Type: functional, cell-based
Each entry below carries its recorded EC50.
Output spec: scalar in nM, unitless text.

Reference set (5 entries):
1. Cc1c(Br)cc(C(=O)NC2CCCCCC2)c(=O)n1CCCCCn1cc(CCCCC(=O)NCC(c2ccccc2)c2c(-c3ccccc3)[nH]c3ccccc23)nn1 (stereo unspecified) = 1580
2. Cc1c(Br)cc(C(=O)NC2CCCCCC2)c(=O)n1CCCn1cc(CCCC(=O)NCC(c2ccccc2)c2c(-c3ccccc3)[nH]c3ccccc23)nn1 (stereo unspecified) = 25.1
3. Cc1c(Br)cc(C(=O)NC2CCCCCC2)c(=O)n1CCCCCn1cc(CCC(=O)NCC(c2ccccc2)c2c(-c3ccccc3)[nH]c3ccccc23)nn1 (stereo unspecified) = 20
4. Cc1c(Br)cc(C(=O)NC2CCCCCC2)c(=O)n1CCCn1cc(CCCCC(=O)NCC(c2ccccc2)c2c(-c3ccccc3)[nH]c3ccccc23)nn1 (stereo unspecified) = 25.1
5. Cc1c(Br)cc(C(=O)NC2CCCCCC2)c(=O)n1CCCCCn1cc(CCCC(=O)NCC(c2ccccc2)c2c(-c3ccccc3)[nH]c3ccccc23)nn1 (stereo unspecified) = 251

Problem: // query EC50 value for entry Cc1c(Br)cc(C(=O)NC2CCCCCC2)c(=O)n1CCCn1cc(CCC(=O)NCC(c2ccccc2)c2c(-c3ccccc3)[nH]c3ccccc23)nn1 (stereo unspecified)
Solution: 7.94

###

target of assay: Cannabinoid receptor 1 (Homo sapiens, UniProt P21554)
test details: Displacement of [3H]CP55940 from human CB1 receptor expressed in CHO cell membrane at 0.001 to 10 uM incubated for 2 hrs relative to control
Assay type: cell membranes
assay context: dose 0.001-10 µM
Each entry below carries its recorded Emax.
Output spec: scalar in %, unitless text.

Reference set (3 entries):
1) Cc1c(Br)cc(C(=O)NC2CCCCCC2)c(=O)n1CCCCCn1cc(CCCC(=O)NCC(c2ccccc2)c2c(-c3ccccc3)[nH]c3ccccc23)nn1 (centres undefined) = 0.12
2) Cc1c(Br)cc(C(=O)NC2CCCCCC2)c(=O)n1CCCCCn1cc(CCCCC(=O)NCC(c2ccccc2)c2c(-c3ccccc3)[nH]c3ccccc23)nn1 (centres undefined) = 31
3) Cc1c(Br)cc(C(=O)NC2CCCCCC2)c(=O)n1Cc1ccc(F)cc1 = 29

Problem: Item: Cc1c(Br)cc(C(=O)NC2CCCCCC2)c(=O)n1CCCn1cc(CCCC(=O)NCC(c2ccccc2)c2c(-c3ccccc3)[nH]c3ccccc23)nn1 (centres undefined) Test system: Cannabinoid receptor 1 (Homo sapiens, UniProt P21554) Read-out: Emax Value: ?
Solution: 31
